# tested-target: acetylcholinesterase (AChE) (Homo sapiens, UniProt P22303)
# Sequence (P22303 32-614): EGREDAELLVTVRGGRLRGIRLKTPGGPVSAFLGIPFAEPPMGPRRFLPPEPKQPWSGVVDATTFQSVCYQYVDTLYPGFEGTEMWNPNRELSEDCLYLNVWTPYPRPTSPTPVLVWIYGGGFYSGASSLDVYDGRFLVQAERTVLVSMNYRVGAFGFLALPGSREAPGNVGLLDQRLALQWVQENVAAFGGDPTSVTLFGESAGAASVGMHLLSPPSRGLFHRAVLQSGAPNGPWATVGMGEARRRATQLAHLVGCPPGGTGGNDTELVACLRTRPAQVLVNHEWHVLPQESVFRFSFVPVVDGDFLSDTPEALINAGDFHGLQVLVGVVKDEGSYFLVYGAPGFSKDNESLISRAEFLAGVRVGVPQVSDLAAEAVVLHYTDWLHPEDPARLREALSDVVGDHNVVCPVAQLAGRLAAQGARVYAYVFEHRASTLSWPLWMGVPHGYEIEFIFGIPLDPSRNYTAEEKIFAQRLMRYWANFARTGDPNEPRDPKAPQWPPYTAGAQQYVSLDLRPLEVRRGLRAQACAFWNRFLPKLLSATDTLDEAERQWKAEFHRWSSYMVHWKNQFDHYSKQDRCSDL
# experiment-summary: biochemical
# Type: biochemical
SI BChE/AChE listing for selected molecules.
Lab note: write the figure by itself, no unit.

> print(dat)
                     smiles.representation                             tested.target  result.number
1  COc1ccc(-c2oc3cc(Cl)c(I)cc3c(=O)c2O)cc1  acetylcholinesterase (AChE) (Homo sapiens, UniProt P22303)           0.40

Turning now to a further molecule:
*Q* Tell me SI BChE/AChE reported for COc1ccc(-c2oc3cc(F)c(I)cc3c(=O)c2O)cc1
*A* 0.50
